Test system: MM1S cells
Condition description: read-out: IC50 inhibition of cell proliferation, 72 hours, MTS assay
Kindly state pIC50 for each of the entries shown.
Give bare numbers, as −log10 of the molar value.

O=C1CCC(N2C(=O)c3cccc(F)c3C2=O)C(=O)N1 (centres unmarked) = 5.45

Consider now this further compound.
For the compound Cc1cccc2c1C(=O)N(C1CCC(=O)NC1=O)C2=O (centres unmarked) , the measured pIC50 on MM1S cells was 6.89

----------
Measured target: CRBN (Homo sapiens)
Sequence (Q96SW2 whole entry): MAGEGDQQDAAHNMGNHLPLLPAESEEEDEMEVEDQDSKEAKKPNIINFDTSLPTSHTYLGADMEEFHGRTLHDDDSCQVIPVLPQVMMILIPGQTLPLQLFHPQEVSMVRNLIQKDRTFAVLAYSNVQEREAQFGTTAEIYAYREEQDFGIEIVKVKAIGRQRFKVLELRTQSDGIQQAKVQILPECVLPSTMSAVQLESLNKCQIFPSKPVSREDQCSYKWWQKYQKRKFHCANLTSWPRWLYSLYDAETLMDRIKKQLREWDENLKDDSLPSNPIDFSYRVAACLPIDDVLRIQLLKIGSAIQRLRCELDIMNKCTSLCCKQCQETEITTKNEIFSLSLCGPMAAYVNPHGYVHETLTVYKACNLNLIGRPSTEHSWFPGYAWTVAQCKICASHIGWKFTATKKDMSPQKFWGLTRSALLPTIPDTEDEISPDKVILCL
Kindly state Kd for each of the entries shown.
Give bare numbers, in nM.

O=C1CCC(N2C(=O)c3cccc(F)c3C2=O)C(=O)N1 (centres unmarked) = 558

Cc1cccc2c1C(=O)N(C1CCC(=O)NC1=O)C2=O (centres unmarked) has a reported Kd of 325
